Biological target: F508delCFTR (Homo sapiens, UniProt P13569, DEL508-508)
Construct: expressed in transfected cells; host or cells: CFBE41o- human lung-derived epithelial cells (CFBE4lo-F508delCFTR-HRP), doxycycline-inducible
Sequence (P13569 with tags, fused parts or gaps DEL508-508): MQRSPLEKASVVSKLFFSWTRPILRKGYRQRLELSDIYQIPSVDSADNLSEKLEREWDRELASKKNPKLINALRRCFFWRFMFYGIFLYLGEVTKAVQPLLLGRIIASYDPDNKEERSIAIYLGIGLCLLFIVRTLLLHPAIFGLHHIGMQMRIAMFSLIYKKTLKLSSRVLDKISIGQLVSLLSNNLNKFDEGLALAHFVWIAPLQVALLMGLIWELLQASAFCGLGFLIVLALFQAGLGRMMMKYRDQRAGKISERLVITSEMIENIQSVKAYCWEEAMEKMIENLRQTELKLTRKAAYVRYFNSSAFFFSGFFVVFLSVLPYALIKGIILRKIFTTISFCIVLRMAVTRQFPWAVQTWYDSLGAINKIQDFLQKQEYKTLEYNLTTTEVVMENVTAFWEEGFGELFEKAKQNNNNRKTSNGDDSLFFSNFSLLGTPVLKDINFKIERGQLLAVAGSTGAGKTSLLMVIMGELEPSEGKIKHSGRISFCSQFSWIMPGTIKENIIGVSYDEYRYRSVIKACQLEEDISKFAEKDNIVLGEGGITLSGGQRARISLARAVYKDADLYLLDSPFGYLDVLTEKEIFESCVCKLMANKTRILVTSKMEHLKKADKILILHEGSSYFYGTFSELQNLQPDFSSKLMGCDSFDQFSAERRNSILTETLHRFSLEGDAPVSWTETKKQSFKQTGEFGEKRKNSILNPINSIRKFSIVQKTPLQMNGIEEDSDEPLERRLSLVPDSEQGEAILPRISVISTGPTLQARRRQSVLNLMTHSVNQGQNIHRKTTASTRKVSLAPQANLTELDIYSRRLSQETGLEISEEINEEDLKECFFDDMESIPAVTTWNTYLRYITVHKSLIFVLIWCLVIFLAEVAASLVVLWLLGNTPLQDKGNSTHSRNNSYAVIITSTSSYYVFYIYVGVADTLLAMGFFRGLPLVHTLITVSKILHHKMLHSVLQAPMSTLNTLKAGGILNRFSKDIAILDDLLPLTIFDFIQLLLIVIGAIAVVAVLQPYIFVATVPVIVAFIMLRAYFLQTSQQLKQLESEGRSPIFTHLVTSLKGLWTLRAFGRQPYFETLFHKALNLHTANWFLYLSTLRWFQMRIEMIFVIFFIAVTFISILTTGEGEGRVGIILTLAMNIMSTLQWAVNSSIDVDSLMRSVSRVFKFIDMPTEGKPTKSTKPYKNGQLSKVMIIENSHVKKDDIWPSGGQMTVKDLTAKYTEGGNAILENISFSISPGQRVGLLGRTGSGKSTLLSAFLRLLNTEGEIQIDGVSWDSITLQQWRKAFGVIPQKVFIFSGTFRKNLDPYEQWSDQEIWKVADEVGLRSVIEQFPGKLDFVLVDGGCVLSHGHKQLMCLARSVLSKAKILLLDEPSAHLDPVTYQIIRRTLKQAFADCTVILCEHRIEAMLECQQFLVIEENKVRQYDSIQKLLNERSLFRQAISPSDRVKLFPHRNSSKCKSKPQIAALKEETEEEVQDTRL
Test: Cell Surface Expression-Horse Radish Peroxidase (CSE-HRP) Assay;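 on Maximum % activity (with co-corrector): co-corrector and positive control are both the same reference corrector at 2 µM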
Format: cell-based
Conditions: with co-corrector (2 μM); maximum at any tested concentration, normalized to on-plate positive control
RECORDED ENDPOINT: Maximum % activity (with co-corrector)

>>> print(df.to_string())
                                   compound                       recorded_endpoint      result
0  COc1ncc(C(F)(F)F)cc1CN[C@@H]1[C@@H](C(C)(C)OC)[C@H](C(=O)O)N(C(=O)C2CCCCC2)[C@@H]1c1ccccc1 (racemic) [III-116]  Maximum % activity (with co-corrector)  +++ (≥350)
1  COc1ccc(C(F)(F)F)cc1CN[C@@H]1[C@@H](C(C)(C)C)[C@H](C(=O)O)N(C(=O)C2CCCCC2)[C@@H]1c1ccccc1 (racemic) [Example I-6]  Maximum % activity (with co-corrector)  +++ (≥350)

====

Target: F508delCFTR (Homo sapiens, UniProt P13569, DEL508-508)
Construct: expressed in transfected cells; host or cells: CFBE41o- human lung-derived epithelial cells (CFBE4lo-F508delCFTR-HRP), doxycycline-inducible
Test: Cell Surface Expression-Horse Radish Peroxidase (CSE-HRP) Assay;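 on Maximum % activity (without co-corrector): percent of the 2 µM on-plate positive control corrector response above DMSO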
Assay type: cell-based
Details: CSE-HRP; without co-corrector; maximum at any tested concentration, normalized to on-plate positive control; read-out: Maximum % activity (without co-corrector)
Listed here: items and their measured Emax.
RECORDED ENDPOINT: Emax

                                    compound  recorded_endpoint       result
 0  COc1ccc(-c2ccc(F)cc2C)cc1CN[C@H]1[C@H](C(C)(C)C)[C@@H](C(=O)O)N(C(=O)C2CCCCC2)[C@H]1c1ccccc1               Emax       > 200%
 1  COc1ncc(C(F)(F)F)cc1CN[C@H]1[C@H](C(C)(C)C)[C@@H](C(=O)O)N(C(=O)C2CCC2)[C@H]1c1ccccc1C(C)C               Emax       > 200%
 2  COc1ncc(Br)cc1CN[C@H]1[C@H](C(C)(C)OC)[C@@H](C(=O)O)N(C(=O)C2CCCCC2)[C@H]1c1ccccc1               Emax  100 to 200%
 3  COc1ccc(C(C)(C)C)cc1CN[C@H]1[C@H](C(C)(C)C)[C@@H](C(=O)O)N(C(=O)Cc2ccccc2Cl)[C@H]1c1ccccc1               Emax       > 200%
 4  COc1ccc(-c2ccc(F)cc2F)cc1CN[C@H]1[C@H](C(C)(C)C)[C@@H](C(=O)O)N(C(=O)C2CCCCC2)[C@H]1c1ccccc1               Emax       > 200%
 5  COc1ccc(C(C)(C)C)cc1CN[C@H]1[C@H](C(C)(C)C)[C@@H](C(=O)O)N(C(=O)CC2CCCO2)[C@H]1c1ccccc1 (some centres unmarked)               Emax       > 200%
 6  COc1ccc(C(C)(C)C)cc1CN[C@H]1[C@H](C(C)(C)C)[C@@H](C(=O)O)N(C(=O)C2CCCCS2(=O)=O)[C@H]1c1ccccc1 (some centres unmarked)               Emax       > 200%
 7  COc1ccc(C(C)(C)C)cc1CN[C@H]1[C@H](C(C)(C)C)[C@@H](C(=O)O)N(C(=O)C2CC3C=CC2C3)[C@H]1c1ccccc1 (some centres unmarked)               Emax       > 200%
 8  CC[C@H](C(=O)N1[C@H](C(=O)O)[C@@H](C(C)(C)C)[C@H](NCc2cc(C(C)(C)C)ccc2OC)[C@@H]1c1cccnc1OC)c1ccccc1               Emax  100 to 200%
 9  CCOc1cc2c(cc1CN[C@H]1[C@H](C(C)(C)C)[C@@H](C(=O)O)N(C(=O)C3CCCCC3)[C@H]1c1ccccc1)CCC2               Emax  100 to 200%
10  COc1ccc(-c2ccccc2)cc1CN[C@H]1[C@H](C(C)(C)C)[C@@H](C(=O)O)N(C(=O)C2CCCCC2)[C@H]1c1ccccc1F               Emax  100 to 200%
11  COc1cc(C(F)(F)F)ccc1CN[C@H]1[C@H](C(C)(C)OC)[C@@H](C(=O)O)N(C(=O)C2CCCCC2)[C@H]1c1ccccc1               Emax       > 200%
12  COc1ccc(C(C)(C)C)cc1CN[C@H]1[C@H](C(C)(C)C)[C@@H](C(=O)O)N(C(=O)C2CCC2)[C@H]1c1ccccc1C(F)(F)F               Emax  100 to 200%
13  COc1cc(Cl)ccc1CN[C@H]1[C@H](C(C)(C)C)[C@@H](C(=O)O)N(C(=O)C2CCCCC2)[C@H]1c1ccccc1               Emax  100 to 200%
